Source listed as paper PMC5442318.

Test system: HepG2 cells
Assay Info: HepG2 cytotoxicity assay
Type: cell-based
Measurement Context: HepG2 cells; mean
Could you please mark 1.0 for values of HepG2 cells mean TOX50 below 20 µM and 0.0 for values at or above it?

Some solved entries appear below for comparison.
Problem: # check: HepG2 cells mean TOX50 < 20 µM for Cc1ccc(-n2c(Sc3ncnc4sccc34)nnc2N2CCCC2)cc1 [TCMDC-125247]
Result: 0.0

Problem: # check: HepG2 cells mean TOX50 < 20 µM for CC(C)C1=CC(=NOS(=O)(=O)c2ccccc2)C=C(C(C)C)C1=O [TCMDC-124172]
Result: 0.0

Problem: # check: HepG2 cells mean TOX50 < 20 µM for NCc1ccc(CNCc2cccc(-c3ccc(-c4nc5cc(C(F)(F)F)ccc5[nH]4)cc3)c2)cc1.O=C(O)C(F)(F)F [TCMDC-132811]
Result: 1.0

Problem: # check: HepG2 cells mean TOX50 < 20 µM for CN1CCC(N2CCC(Oc3cccc(C(=O)NCCCC4CCCC4)c3)CC2)CC1 [TCMDC-124677]
Result: 1.0

Continuing:
Problem: # check: HepG2 cells mean TOX50 < 20 µM for FC(F)(F)c1cccc(Nc2nc3ccccc3nc2Nc2cccc(C(F)(F)F)c2)c1 [TCMDC-124162]
Result: 1.0

Problem: # check: HepG2 cells mean TOX50 < 20 µM for Fc1ccc2nc(Nc3nc(-c4ccccn4)cs3)sc2c1 [TCMDC-125540]
Result: 0.0

Problem: # check: HepG2 cells mean TOX50 < 20 µM for COc1ccccc1C1CCN(C2CCC(NC(=O)c3ccc4[nH]c(-c5ccc(C)cc5)nc4c3)CC2)CC1 (centres unmarked) [TCMDC-133556]
Result: 1.0

----------
System: P. falciparum stage V female gametocytes
Assay Info: P. falciparum female gametocyte activation assay (Pf FGAA), 24 h or 48 h preincubation, Pfs25 expression readout
Format: cell-based, Plasmodium falciparum NF54
Measurement Context: 24h incubation time; read-out: Pf FGAA IC50 (µM) 24h
Experimental: P. falciparum NF54 (originally isolated from an imported malaria case in the Netherlands in the 1980s; BEI Resources, cat. no. MRA-1000) asexual-stage culture was performed as described by Trager and Jensen[37]. […] Sexual-stage development was monitored microscopically by Giemsa-stained thin blood smears at day 7 (mainly asexual stages and stages I to III gametocytes) and day 14 (stages IV and V gametocytes). […]
Consider the reported IC50 of an entry and match it to a band in class A: < 2 µM; class B: ≥ 2 µM and < 3 µM; class C: ≥ 3 µM

Some solved entries appear below for comparison.
Problem: Which class does Cc1ccc2c(c1)c(C1CCN(C(=O)c3ccc([N+](=O)[O-])o3)CC1)cn2C [TCMDC-124787] fall in?
Result: class A

Problem: Which class does O=C(Nc1nc(-c2ccccn2)cs1)c1ccc(S(=O)(=O)N2CCc3ccccc32)cc1 [TCMDC-125432] fall in?
Result: class A

Problem: Which class does Clc1nc(Cl)c2c(ccn2Cc2ccccc2)n1 [TCMDC-137801] fall in?
Result: class B

Problem: Which class does CC(C)(CNC(=O)[C@@H]1CCCCN1)c1nc(-c2ccc(Cl)c(O)c2)c(-c2ccncc2)[nH]1.Cl [TCMDC-141079] fall in?
Result: class B

Problem: Which class does N#Cc1ccc(Cn2ccc3c4c(N)nc(N)nc4ccc32)cc1 [TCMDC-137820] fall in?
Result: class A

Problem: Which class does CN1CCN(Cc2ccc(OCc3cccc(COc4ccc(CN5CCN(C)CC5)cc4I)c3)c(I)c2)CC1.Cl [TCMDC-137239] fall in?
Result: class C

Problem: Which class does CN(C)CCN1CCN(CCCN2c3ccccc3Sc3ccc(C(F)(F)F)cc32)CC1.Cl [TCMDC-142257] fall in?
Result: class A

Problem: Which class does N#Cc1ccc(-c2ccc(C(=O)NCC3CCN(CCN4CCC(c5ccc6c(c5OCC(N)=O)CCCC6)CC4)CC3)cc2)cc1 [TCMDC-134563] fall in?
Result: class C

Problem: Which class does Cc1noc(C)c1-c1ccc2c(Nc3nccc4ccccc34)c(C(N)=O)cnc2c1 [TCMDC-136456] fall in?
Result: class C

Problem: Which class does Cc1cccc2nc(-c3ccc(-c4ccc(CNCCN5CCNCC5)cc4)s3)[nH]c12.O=C(O)C(F)(F)F [TCMDC-132870] fall in?
Result: class C

Continuing:
Problem: Which class does O=C(Nc1nc(-c2ccccn2)cs1)c1ccc(Br)s1 [TCMDC-123868] fall in?
Result: class A

Problem: Which class does COc1cccc(-c2csc(C(=O)NCC3CCN(Cc4ccc(C(C)C)cc4)C3)c2)c1.O=C(O)C(F)(F)F (stereo not shown) [TCMDC-134439] fall in?
Result: class C

Problem: Which class does O=C(Nc1ccc(-c2ccccc2)c(OCCN2CCNCC2)c1)c1ccc(-c2ccc(Cl)cc2)cc1 [TCMDC-138818] fall in?
Result: class A

Problem: Which class does CC(C)(C)OC(=O)NCc1ccc(Nc2nnc(-c3cccc(C(=O)NCc4cc(C(F)(F)F)cc(C(F)(F)F)c4)c3)o2)cc1 [TCMDC-135229] fall in?
Result: class B

Problem: Which class does Nc1ccc2[nH]cc(C3CCN(CC4CCC(NC(=O)/C=C/c5ccc(Cl)c(Cl)c5)CC4)CC3)c2n1 (stereo not shown) [TCMDC-140064] fall in?
Result: class C

Problem: Which class does CCCc1cc(=O)[nH]c(-n2nc(C)cc2NC(=O)CC(c2ccccc2)c2ccccc2)n1 [TCMDC-124940] fall in?
Result: class A

----------
compounds and their reported IC50
Test system: P. falciparum female gametes
Assay Info: Pf FGAA with compounds added 30 min after triggering gametocyte activation (gamete-targeting)
Format: cell-based, Plasmodium falciparum NF54
Measurement Context: Plasmodium falciparum; 0h incubation time
Field format: number, assumed µM, no unit text.

Reference set, count: 10
Problem: Could you tell me which IC50 is on file for Cc1ccc(Cn2nc(Cl)c(N3CCNCC3)cc2=O)cc1NC(=O)Nc1ccc(-c2ccccc2)cc1 ?
Result: 1.93

Problem: Could you tell me which IC50 is on file for COc1ccc(NC(=O)Nc2ccc(Nc3nc(C)cc(N4CCCC4)n3)cc2)cc1 ?
Result: 10.1

Problem: Could you tell me which IC50 is on file for Clc1ccc(Nc2nc(NCc3ccccc3)nc(N/N=C/c3ccccn3)n2)cc1 ?
Result: 2.98

Problem: Could you tell me which IC50 is on file for O=C(Nc1ccc([N+](=O)[O-])cc1)Nc1cc(OCC(F)(F)F)cc(OCC(F)(F)F)c1 ?
Result: 5.64

Problem: Could you tell me which IC50 is on file for COc1cc2nc(-c3ccc(Br)cc3)cc(N)c2cc1OC ?
Result: 8.17

Problem: Could you tell me which IC50 is on file for CC(C)(CNC(=O)[C@H]1CCCCN1)c1nc(-c2ccc(Cl)c(O)c2)c(-c2ccncc2)[nH]1 ?
Result: 1.77

Problem: Could you tell me which IC50 is on file for COc1cc(OC)cc(C(=O)Nc2nc(-c3ccccn3)cs2)c1 ?
Result: 4.95

Problem: Could you tell me which IC50 is on file for C=CCc1cccc(CN2CCC(c3cc(O)nc(-c4ccccn4)n3)CC2)c1O ?
Result: 2.42

Problem: Could you tell me which IC50 is on file for N#Cc1c(F)cc(N2CCC(NCC[C@H](N)Cc3ccc(F)c(F)c3)CC2)cc1F ?
Result: 7.08

Problem: Could you tell me which IC50 is on file for CCCC(=O)NC(c1ccc(C)cc1)c1ccc2cccnc2c1O (centres unmarked) ?
Result: 3.99

Field: next compound
Problem: Could you tell me which IC50 is on file for NCC1(c2nc(-c3ccc(Cl)c(O)c3)c(-c3ccncc3)[nH]2)CCCCC1 ?
Result: 0.25

----------
System: P. falciparum stage V female gametocytes
Assay Info: P. falciparum female gametocyte activation assay (Pf FGAA), 24 h or 48 h preincubation, Pfs25 expression readout
Format: cell-based, Plasmodium falciparum NF54
Measurement Context: P. falciparum female gametocytes; mean; read-out: Gametocytes mean Pf FGAA IC50
Could you please mark Condition met for values of IC50 below 1000 nM and Condition not met for values at or above it?

Problem: # check: IC50 < 1000 nM for COc1ccc2nc3cc(Cl)ccc3c(N)c2c1.Cl
Result: Condition met

Problem: # check: IC50 < 1000 nM for O=C(O)C(F)(F)F.c1cc(CN2CCC(CCN3CCCCC3)CC2)cc(-c2csc(-c3nc4ccccc4[nH]3)c2)c1
Result: Condition not met

Problem: # check: IC50 < 1000 nM for Cc1ccnc(NC(c2ccc(Cl)c([N+](=O)[O-])c2)c2ccc3cccnc3c2O)c1 (centres unmarked)
Result: Condition not met

Problem: # check: IC50 < 1000 nM for Br.CC(C)(Cc1ccc(Cl)cc1)NCCCCCCNCCc1ccc(O)c(O)c1
Result: Condition not met

Problem: # check: IC50 < 1000 nM for O=C(Nc1nc(-c2ccccn2)cs1)c1ccc(S(=O)(=O)N2CCc3ccccc32)cc1
Result: Condition not met
